run description: yeast display, Sf9 membrane polyspecificity reagent, FACS + sequencing; frameworks hold sequencing errors
result type: polyreactivity (PSR sort gate)

- QVQLVESGRGLVQAGGSLRLSCAPSGFTFHNNVMGWYRQAPGKERELVATISKSGGSTYYADSVKGRFTISRDNAKNTVYLQMNSLKPEDTAVYYCARRYRDYGRYGYWGQGTQVTVSS: high polyreactivity
- QVQLVESVGGLVQAGGSLRLSCAASGYIFKYYAMGWYRQAPGKERELVAAISRSGGSTYYADSVKGRFTISRDNAKNTVYLQMNSLKPEDTAVYYCNAAAYVWKSKQRLYVITYDYWGQGTQVTVSW: high polyreactivity
- QVQLVESGGGLVQAGGSLRLSCAASGSIFVRNGMGWYIQAPGKERELVASITSGTITYYADSVKGRFTISRDNAKNTVYLQMNSLKPEDTAVYYCAARRDRGRVKFYYWGQGTQVTVSS: high polyreactivity
- QVQLVESGGGLVQAGGSLRLSCAASGFTFPSYAMGWYRQAPGKERELVAAISYRGGRTYYADSVKGRFTISRDNAKNTVYLQMNSLKPEDTAVYYCAAKGWYFGYGRYGYWGQGTQVTVSS: high polyreactivity
- QVQLQESGGGLVQAGGSLRLSCAASGSISNLIAKGWYRQAQGKEREFVAAIGPGANTNYADSVKGRFTISRDNANNTVSLQMNSLKPDDTAVFYCAVDYYGVAVYHYWGQGTQVTVSS: high polyreactivity

* * *

run description: yeast display, Sf9 membrane polyspecificity reagent, FACS + sequencing; frameworks hold sequencing errors
result type: polyreactivity (PSR sort gate)

• QVQLVESGGGLVQAGGSLRLSCAASGSTFAKNAMGWYRQAPGKERELVAAISSGGSTYYADSVKGRFTISRDNAKNTVYLQMNSLKPEDTAVYYCAASWKQGYRTYGYWGQGTQVTVSS = high polyreactivity
• QVQLVESGGGLVQTGGSLRLSCAASGRTFGYNAMGWYRQAPGKERELVASISYSGGSTYYADSVKGRFTISRDNAKNTVYLQMNSLKPEDTAVYYCAAKYWYWQSPSKYYYWGQGTQVTVSS = high polyreactivity

* * *

run description: yeast display, Sf9 membrane polyspecificity reagent, FACS + sequencing; frameworks hold sequencing errors
result type: polyreactivity (PSR sort gate)

• QVQLVESGGGLVQAGGSHRLSCAASGRILYRNVMGWYRQAHGKERELVAGISFTGGSTYYADSVKRRFTISRDNAKNTVYLQMNSLKPEDTAVYYCAATYSSYWARYYYWGQGTPVTVSS = high polyreactivity
• QVQLVESGGGLVQAGGSLRLSCAASGRTFRSNVMGWYRPAPGNERELVASITWSGGTTYYADSVKGRFTISRDNAKNTVYLQMNSLKPEDTAVYYCNAADERSQGWVGYDNWGQCTQVTVSS = low polyreactivity
• QVQLVESGGGLVQAGGSLRLSCAASGRTFVRYAMGWYRQAPGKERELVAAITRRGGSTYYADSVKGRFTISRDNAKNTVYLQMNSLKPEDTAVYYCNKAVGVTGFDYWGQGTQVTVSS = high polyreactivity
• QVQLVESGGGLVQAGGSLRLSCAASGSTFGGNAMGWYRQAPGKERELVAAISSSGGSTYYADSVKGRFTISRDNAKNTVYLQMNSLKPEDTAVYSCAALYHWTYDYWGQGTQVTVSS = low polyreactivity
• QVQLVESGGGLVQAGRSLRLSCAASGFTFETYAMGWYRQAPGKERELVAAISDGGGDTYYADSVKGRFTISRDNAKNTVYLLMNSLKPEDSAVYYCAAEWDGNWSRGAGGYDYWGQGTQVTVSS = low polyreactivity
• QVQLVESGGGLVQAGGSLRLSCAASGSILWENAMGWYRQAPGKERELVATISVSGGGTYYADSVKGRFTISRDNAKNTVYLQMNSLKPEDTAVYYCNARYGNESQGWEDYWGQGTQVTVSS = low polyreactivity
• QVQLVESGGGLVQAGGSLRLSCAASGRILVPNAMGWYRQAPGKERELVATITSSGSTYADSVKGRFTISRDNAKNTVYLQMNSLKPEDTAVYYCAAKYTGSFINYGLWGTYFEDDYWGQGTQVTVSS = low polyreactivity
• QVQVVESGGGLVQEGGSLRLSCAASGSTFGINAMGWYRPAPGKEREWVAAITSTGRTYYADSVKGRFTNSRDNAKNTVYLQMNSLKPEDTAVYYCAAVWRYKGLLLPSYYYWGQGTQVTVSS = high polyreactivity
• QVQLVESGGGLVQAGGSLRLSCAASGITLRRNAMGWYRQAPGKERELVARISTTGGSTYYADSVKGRFTISRDNAKNTVYLQMNSLKPEDTAVYYCAADYVQYEFEYWGQGTQVTVSS = high polyreactivity
• QVQLVESGGGLVQAGGSLRLSCAASGLIFYINAMGWYRQAPGKERELVAVISGGGSTNYADSVKGRFTISRDNAKNTVYLQMNSLKPEDTAVYYCNARRSHSYRHYDYWGQGTQVTVSS = low polyreactivity
• QVQLVESGGGLVQAGGSLRLSCAASGIIFIKYSMGWYRQAPGKERELVAAITSGGSTHYADSVKGRFTISRDNAKNTVYLQMNSLKPEDTAVYYCYADILRHVAYFKDRYQAGSYWGQGTQVTVSS = low polyreactivity
